- particulars: in methanol, 318.15 K
measure name: solubility (mole fraction)
Give the value as a plain number.

Need solubility (mole fraction), item N#Cc1ccncc1
0.283

====

- particulars: in acetone, 293.15 K
measure name: solubility (mole fraction)
Give the value as a plain number.

Need solubility (mole fraction), item N#Cc1ccncc1
0.246

Values were extracted from BigSolDB 2.1.
